Activity at 133 nM (% Inhibition), 24-hour Pre-incubation at 37° C., Average values for the binders below.
molecular target: KDR (human, UniProt P35968 20-1356); test: cell-based or functional assay
Sequence (P35968 20-1356): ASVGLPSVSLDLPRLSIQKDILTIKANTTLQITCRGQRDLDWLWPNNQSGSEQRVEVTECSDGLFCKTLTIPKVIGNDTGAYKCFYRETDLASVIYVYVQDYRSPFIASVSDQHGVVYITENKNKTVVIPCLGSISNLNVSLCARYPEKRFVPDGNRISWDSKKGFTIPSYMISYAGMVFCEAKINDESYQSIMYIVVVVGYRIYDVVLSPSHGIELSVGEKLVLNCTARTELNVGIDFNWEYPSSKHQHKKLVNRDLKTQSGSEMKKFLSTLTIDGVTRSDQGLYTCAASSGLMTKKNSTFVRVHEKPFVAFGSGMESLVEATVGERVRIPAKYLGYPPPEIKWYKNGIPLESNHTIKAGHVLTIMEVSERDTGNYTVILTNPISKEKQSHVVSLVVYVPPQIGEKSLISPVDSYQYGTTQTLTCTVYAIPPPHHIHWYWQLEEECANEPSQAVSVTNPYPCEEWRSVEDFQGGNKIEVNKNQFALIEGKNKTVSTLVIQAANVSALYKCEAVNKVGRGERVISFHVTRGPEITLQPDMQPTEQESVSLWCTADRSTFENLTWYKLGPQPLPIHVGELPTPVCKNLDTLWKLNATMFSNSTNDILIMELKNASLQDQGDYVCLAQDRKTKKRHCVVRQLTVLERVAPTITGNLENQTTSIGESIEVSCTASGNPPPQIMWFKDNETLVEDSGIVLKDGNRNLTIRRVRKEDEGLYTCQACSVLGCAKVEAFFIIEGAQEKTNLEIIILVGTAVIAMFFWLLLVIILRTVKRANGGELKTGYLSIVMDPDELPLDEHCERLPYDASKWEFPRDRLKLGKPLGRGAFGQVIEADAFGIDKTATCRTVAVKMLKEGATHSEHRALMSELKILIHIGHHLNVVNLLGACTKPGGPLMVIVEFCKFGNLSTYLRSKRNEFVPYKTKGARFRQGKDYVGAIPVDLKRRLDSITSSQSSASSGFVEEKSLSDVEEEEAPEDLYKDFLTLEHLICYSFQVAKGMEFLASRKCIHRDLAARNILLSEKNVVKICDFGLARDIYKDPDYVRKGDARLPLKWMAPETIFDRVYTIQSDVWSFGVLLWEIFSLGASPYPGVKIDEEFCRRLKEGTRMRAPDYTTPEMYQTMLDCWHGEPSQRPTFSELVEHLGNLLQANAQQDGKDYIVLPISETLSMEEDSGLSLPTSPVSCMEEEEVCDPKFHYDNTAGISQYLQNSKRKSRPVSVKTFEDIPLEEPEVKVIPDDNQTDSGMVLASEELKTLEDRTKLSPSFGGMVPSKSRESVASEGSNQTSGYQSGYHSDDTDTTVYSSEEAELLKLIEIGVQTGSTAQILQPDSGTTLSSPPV
Respond with the bare value in %.

29H3 (antibody, V domains shown) VH: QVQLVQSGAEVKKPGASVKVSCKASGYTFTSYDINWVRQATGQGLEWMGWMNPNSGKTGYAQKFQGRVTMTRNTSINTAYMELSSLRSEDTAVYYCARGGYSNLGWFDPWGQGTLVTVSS VL: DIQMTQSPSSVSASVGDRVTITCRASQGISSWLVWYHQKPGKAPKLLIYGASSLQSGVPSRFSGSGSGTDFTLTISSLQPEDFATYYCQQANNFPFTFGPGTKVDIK
19

Would you kindly share the measured Activity at 133 nM (% Inhibition), 24-hour Pre-incubation at 37° C., Average for 29F7 (antibody, V domains shown) VH: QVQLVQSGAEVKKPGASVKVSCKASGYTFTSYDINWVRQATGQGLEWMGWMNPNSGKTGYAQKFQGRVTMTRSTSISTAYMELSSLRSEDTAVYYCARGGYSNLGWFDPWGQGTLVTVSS VL: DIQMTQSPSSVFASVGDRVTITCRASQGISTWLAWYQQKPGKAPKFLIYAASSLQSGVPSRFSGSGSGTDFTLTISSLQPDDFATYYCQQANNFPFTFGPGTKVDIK ?
26

Would you kindly share the measured Activity at 133 nM (% Inhibition), 24-hour Pre-incubation at 37° C., Average for 21H6 (antibody, V domains shown) VH: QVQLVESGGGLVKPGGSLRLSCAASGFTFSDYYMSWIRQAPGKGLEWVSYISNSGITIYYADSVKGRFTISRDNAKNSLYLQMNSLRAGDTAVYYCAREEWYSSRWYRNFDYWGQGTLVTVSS VL: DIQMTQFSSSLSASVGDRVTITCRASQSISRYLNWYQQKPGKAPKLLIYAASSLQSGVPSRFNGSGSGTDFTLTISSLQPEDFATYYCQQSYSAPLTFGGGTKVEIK ?
27
